Each recorded value in this set is attributed to patent US20240043427A1.

target: UniProt P21589; test: MDA-MB-231 Cell Based CD73 Activity Assay (DMEM); details: MDA-MB-231-GFP cells, DMEM medium with 10% human plasma, 200 uM AMP
Please go through the items and note down their EC50.
Your answer should be a plain number; it is taken to be in nM.

Request body: readout EC50, system UniProt P21589, query O=c1[nH]cc(-c2cc(N3CC(F)(c4ccccc4)C3)c3nccn3n2)c(=O)[nH]1 . Return the value.
80.7

Value wanted: EC50 (UniProt P21589) of entry CC(C)n1cc(CC2CCN(c3cc(-c4c[nH]c(=O)[nH]c4=O)nn4ccnc34)C2)nn1 (stereo not shown)
160

Hi! What's the reported EC50 for Cc1cc([C@H]2C[C@@H]2c2cc(-c3c[nH]c(=O)[nH]c3=O)nn3ccnc23)cc(F)c1C#N on UniProt P21589?
7.93

Give recorded EC50 with UniProt P21589 for the following compound: CCc1cnn2c(N3CC(C)(C)C(F)(F)C3)cc(-c3c[nH]c(=O)[nH]c3=O)nc12
584

====

Consider the following compounds; for each one, report its EC50.
target: CD73 (Homo sapiens (Human)); assay: MDA-MB-231 Cell Based CD73 Activity Assay (DMEM); conditions: MDA-MB-231-GFP cells, DMEM medium with 10% human plasma, 200 uM AMP
Reply numerically in nM, unit not repeated.

What does the record list as EC50 for O=c1[nH]cc(-c2cc(N3CCC4(C3)CC(F)(F)C4)c3nccn3n2)c(=O)[nH]1 ?
62.3

Entry O=c1[nH]cc(-c2cc(OCC(F)(F)C3CC3)c3nccn3n2)c(=O)[nH]1 : reported EC50 = ?
10.6

Suppose we examine the compound O=c1[nH]cc(-c2cc(NC3CCCC3)c3nccn3n2)c(=O)[nH]1 ; what EC50 value has been reported?
410

Quick one: EC50 of O=c1[nH]cc(-c2cc([C@H]3C[C@@H]3c3cnc4cnn(CC(F)(F)F)c4c3)c3ncc(F)n3n2)c(=O)[nH]1 [Example 628] ?
0.23

====

target: CD73 (Homo sapiens (Human), UniProt P21589); assay: CD73 Biochemical IC50 Assay; settings: CD73 0.3 nM, AMP 15 uM, 25 mM Tris pH 7.4, 5 mM MgCl2
Sequence (P21589 27-574): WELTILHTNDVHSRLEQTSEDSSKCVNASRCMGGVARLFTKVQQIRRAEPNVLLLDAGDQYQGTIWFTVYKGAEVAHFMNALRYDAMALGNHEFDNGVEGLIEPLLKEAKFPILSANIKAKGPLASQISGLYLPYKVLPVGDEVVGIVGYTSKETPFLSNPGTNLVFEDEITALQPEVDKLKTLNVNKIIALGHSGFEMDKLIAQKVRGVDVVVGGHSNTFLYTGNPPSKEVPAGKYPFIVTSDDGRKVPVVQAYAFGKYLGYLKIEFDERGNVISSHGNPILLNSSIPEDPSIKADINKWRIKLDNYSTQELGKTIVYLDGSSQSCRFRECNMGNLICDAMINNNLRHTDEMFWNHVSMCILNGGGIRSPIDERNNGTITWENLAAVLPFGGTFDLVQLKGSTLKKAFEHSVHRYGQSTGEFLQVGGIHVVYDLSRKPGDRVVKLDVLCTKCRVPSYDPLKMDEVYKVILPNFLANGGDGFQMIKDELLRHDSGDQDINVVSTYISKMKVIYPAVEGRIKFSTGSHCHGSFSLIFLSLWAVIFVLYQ
quantity_kind: pIC50
FYI, pIC50 means -log10 of a concentration in mol per litre.

Entry O=c1[nH]cc(-c2cc(N3CC(F)(F)C(F)(F)C3)c3nccn3n2)c(=O)[nH]1 has what pIC50?
7.35

Please give the measured pIC50 for this molecule: O=c1[nH]cc(-c2cc([C@H]3C[C@@H]3c3ccc(F)c(C(F)(F)F)c3)c3nccn3n2)c(=O)[nH]1 (racemic)
7.31

Reported pIC50, molecule O=c1[nH]cc(-c2cc(OCc3ccccc3)c3nccn3n2)c(=O)[nH]1 : ____
6.79

GET /values?readout=pIC50&item= CCOC(=O)c1cn2nc(-c3c[nH]c(=O)[nH]c3=O)cc(C3CC3)c2n1
6.63

Entry O=c1[nH]cc(-c2cc(N3CCC(c4ccc(F)cc4)C3)c3nccn3n2)c(=O)[nH]1 (stereo in doubt) [Example 67] has what pIC50?
7.52

If you can, please state the reported pIC50 value of O=c1[nH]cc(-c2cc([C@H]3C[C@@H]3c3cccnc3)c3nccn3n2)c(=O)[nH]1 (racemic) .
7.68

What measured pIC50 goes with O=c1[nH]cc(-c2cc(N3CC(c4ccccc4)C3)c3nccn3n2)c(=O)[nH]1 ?
7.19

====

I'd appreciate it if you could supply log10 IC50 values for the items below.
biological target: CD73 (Homo sapiens (Human), UniProt P21589); type: biochemical; details: 1 mM NaH2PO4 in enzyme buffer, CD73 0.3 nM, AMP 15 uM
Reminder: these figures are log10 of reported IC50, in nM before transformation.

Field request: log10 IC50 | item: O=c1[nH]cc(-c2cc(N3CC4(C3)CC(F)(F)CO4)c3nccn3n2)c(=O)[nH]1 [Example 449]
2.12

What does the data say about its log10 IC50? Entry: O=c1[nH]cc(-c2cc(N3C[C@H](Oc4cc(C(F)(F)F)cnn4)C(F)(F)C3)c3ncc(F)n3n2)c(=O)[nH]1 [Example 666]
0.26

So what does the record say about log10 IC50 for O=c1[nH]cc(-c2cc([C@@H]3C[C@H]3c3cc(F)c(F)c(F)c3)c3nccn3n2)c(=O)[nH]1 (racemic) [Example 36] ?
0.43

Could you share which log10 IC50 value was measured for CC1CN(c2cc(-c3c[nH]c(=O)[nH]c3=O)nc3c(F)cnn23)CC1(F)F (stereo not shown) [Example 222] ?
1.24

Would you mind telling me what log10 IC50 value was observed for O=c1[nH]cc(-c2cc(N3CCC(F)(c4ccc(C(F)(F)F)cc4)C3)c3nccn3n2)c(=O)[nH]1 (stereo not shown) [Example 256] ?
1.63

Record request: log10 IC50 value, item O=c1[nH]cc(-c2cc([C@H]3C[C@@H]3c3ccc(OC(F)F)cn3)c3nccn3n2)c(=O)[nH]1 (racemic) [Example 136]
0.49

Look up log10 IC50 for this compound: O=C1N(CC(F)(F)F)c2cc([C@H]3C[C@@H]3c3cc(-c4c[nH]c(=O)[nH]c4=O)nc4ccnn34)ccc2C12CC2 [Example 715]
0.15

====

target: CD73 (Homo sapiens (Human), UniProt P21589); assay type: biochemical; conditions: 1 mM NaH2PO4 in enzyme buffer, CD73 0.3 nM, AMP 15 uM
I'd appreciate it if you could supply pIC50 values for the items below.
# pIC50: negative log10 of molar concentration; output just the value

Given O=c1[nH]cc(-c2cc([C@H]3C[C@@H]3c3ccc4c(c3)c(=O)ccn4CC(F)(F)F)c3nccn3n2)c(=O)[nH]1 [Example 708] , state its recorded pIC50.
8.48

Endpoint output: pIC50 of O=c1[nH]cc(-c2cc(N3CC[C@H](OC(F)(F)F)C3)c3nccn3n2)c(=O)[nH]1 [Example 196] . Value?
7.01

I'd like to know its pIC50. The molecule in question is O=c1[nH]cc(-c2cc([C@H]3C[C@@H]3c3cnn(C(F)(F)F)c3)c3nccn3n2)c(=O)[nH]1 (racemic) [Example 366]
8.18

Would you mind telling me what pIC50 value was observed for CC1(C)CN(c2cc(-c3c[nH]c(=O)[nH]c3=O)nn3c(F)cnc23)CC1(F)F [Example 81] ?
8.71

Would you kindly share the measured pIC50 for COc1ccc(C2CCN(c3cc(-c4c[nH]c(=O)[nH]c4=O)nn4ccnc34)C2)cc1 (stereo not drawn) [Example 173] ?
8.44

Need pIC50 of O=c1[nH]cc(-c2cc(OCC(F)(F)CO)c3nccn3n2)c(=O)[nH]1 [Example 687] , thanks.
8.06

What measured pIC50 goes with CC1(C)CCN(c2cc(-c3c[nH]c(=O)[nH]c3=O)nn3ccnc23)C1 [Example 72] ?
8.16

Sample C[C@H](NC(=O)O[C@H]1CN(c2cc(-c3c[nH]c(=O)[nH]c3=O)nn3ccnc23)CC1(F)F)C(F)(F)F [Example 547] — what was its pIC50?
9.51

Would you kindly share the measured pIC50 for O=c1[nH]cc(-c2cc([C@H]3C[C@@H]3c3ccc(Cl)cn3)c3ncc(F)n3n2)c(=O)[nH]1 [Example 584] ?
9.04

Returns the measured pIC50 for the input molecule. Input: O=c1[nH]cc(-c2cc([C@H]3C[C@@H]3c3ccc4nc(C(F)F)n(CC(F)(F)F)c4c3)c3nccn3n2)c(=O)[nH]1 (racemic) [Example 626]
8.29

Fill in: pIC50 of O=c1[nH]cc(-c2cc(N3CC(F)(F)C4(CC4)C3)n3ncc(Cl)c3n2)c(=O)[nH]1 [Example 218] is ___
8.48

Given the molecule O=C(NC1CN(c2cc(-c3c[nH]c(=O)[nH]c3=O)nn3ccnc23)CC1(F)F)OCC1CC1 (stereo not drawn) [Example 207] , what is its reported pIC50?
8.22

Query (molecule): O=c1[nH]cc(-c2cc([C@H]3C[C@@H]3c3ccc(OC(F)F)cc3)c3nccn3n2)c(=O)[nH]1 (racemic) [Example 556] ; field requested: pIC50
8.47

Which pIC50 is reported for this molecule? COC(=O)c1ccc(C2CCN(c3cc(-c4c[nH]c(=O)[nH]c4=O)nn4ccnc34)C2)cc1 (stereo not drawn) [Example 265]
8.49

====

target: CD73 (Homo sapiens (Human)); experiment: MDA-MB-231 Cell Based CD73 Activity Assay (DMEM); settings: MDA-MB-231-GFP cells, DMEM medium with 10% human plasma, 200 uM AMP
Classify: condition met when EC50 is strictly less than 40 nM; condition not met when EC50 is not.

Threshold test, EC50 < 40 nM: O=c1[nH]cc(-c2cc(N3CC4(CCC4(F)F)C3)c3nccn3n2)c(=O)[nH]1
condition met

Hello, is EC50 of the following compound strictly smaller than 40 nM? COc1ccc(CN(CC(F)F)c2cc(-c3c[nH]c(=O)[nH]c3=O)nn3ccnc23)cc1
condition not met

Below 40 nM on EC50? Entry O=C1N(CC(F)(F)F)c2cc([C@H]3C[C@@H]3c3cc(-c4c[nH]c(=O)[nH]c4=O)nn4ccnc34)ccc2C12CCCC2
condition met

Does the reported EC50 of the following compound sit strictly below 40 nM? O=c1[nH]cc(-c2cc(N3C[C@H]4CC[C@H]4C3)c3nccn3n2)c(=O)[nH]1
condition met

Criterion: EC50 strictly below 40 nM. Is it met by N#Cc1ccc([C@H]2C[C@@H]2c2cc(-c3c[nH]c(=O)[nH]c3=O)nn3ccnc23)cc1F (racemic) [Example 115] ?
condition met

Quick check: does N#Cc1cc(F)c([C@H]2C[C@@H]2c2cc(-c3c[nH]c(=O)[nH]c3=O)nn3c(F)cnc23)c(F)c1 have EC50 under 40 nM?
condition met

Is it true that EC50 reported for CC(C)COc1cc(-c2c[nH]c(=O)[nH]c2=O)nn2ccnc12 is less than 40 nM?
condition met

Input N#CC1(F)CCN(c2cc(-c3c[nH]c(=O)[nH]c3=O)nn3ccnc23)C1 (stereo not drawn) ; condition: EC50 strictly below 40 nM. Does it hold?
condition not met

Dear colleague, could you confirm whether EC50 of CC(C)c1nn(CC(F)(F)F)c2cc([C@H]3C[C@@H]3c3cc(-c4c[nH]c(=O)[nH]c4=O)nn4ccnc34)ccc12 (racemic) falls below 40 nM? Thanks.
condition met

Given the entry O=c1[nH]cc(-c2cc(OCC(F)(F)c3ccccn3)c3nccn3n2)c(=O)[nH]1 , would its reported EC50 be below 40 nM?
condition met

# check: EC50 < 40 nM for O=c1[nH]cc(-c2cc(NCCc3cccc(Cl)c3)c3nccn3n2)c(=O)[nH]1
condition not met

# strict comparison: is reported EC50 < 40 nM? input = COc1ccc(C2CN(c3cc(-c4c[nH]c(=O)[nH]c4=O)nn4ccnc34)CC2(F)F)cc1 (stereo not drawn)
condition not met

Item O=c1[nH]cc(-c2cc([C@@H]3C[C@H]3c3cc4c(cn3)cnn4CC(F)(F)F)c3ncc(F)n3n2)c(=O)[nH]1 : EC50 beneath 40 nM, strictly?
condition met

Bench note: check whether CC(=O)NC1CCN(c2cc(-c3c[nH]c(=O)[nH]c3=O)nc3ccnn23)C1 (stereo not drawn) shows EC50 below 40 nM
condition not met

Hi there! Is EC50 for O=c1[nH]cc(-c2cc([C@H]3C[C@@H]3c3ccc4ccn(CC(F)(F)F)c(=O)c4c3)c3nccn3n2)c(=O)[nH]1 below 40 nM, do you know?
condition met
